- measured on: T1, Human GDF15 Fc (human, UniProt Q99988 195-308, limits assumed, biotinylated (EZ-Link Sulfo-NHS-Biotinylation Kit) in the SPR assay)
- T1 construct: also called human GDF15-Fc fusion; biotinylated Human GDF15 Fc; not shown: Fc part
- T1 sequence: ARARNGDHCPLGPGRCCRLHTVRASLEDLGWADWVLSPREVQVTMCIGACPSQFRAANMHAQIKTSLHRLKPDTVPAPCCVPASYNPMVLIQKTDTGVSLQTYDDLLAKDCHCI
- assay notes: SPR Biacore 8K; biotinylated antigen captured, Fab analyte
test readout: pKd
Bear in mind: pKd is minus log10 of a mol/L concentration; give just that figure.

Here's what some known entries look like.
binder	pKd
GDF15 antibody agent Clone P, Fab (Fab, V domains shown, Fab; CH1 and CL of the Fab not specified; also called Fab of Clone P) VH: QVQLVQSGAEVKKPGATVKVSCKASGYTFDSYGIHWVRQAPGQGLEWMGWITAYSGDTVYAQKLQGRVTMTTDTSTSTAYMELRSLRSDDTAVYYCARESGQTSSALGPWGQGTLVTVSS VL: DIQMTQSPSSVSASVGDRVTITCRASQGISRWLAWYQQKPGKAPKLLIYAASSLQSGVPSRFSGSGSGTDFTLTISSLQPEDFATYYCQQGASFPLTFGGGTKVEIK	9.90
GDF15 antibody agent Clone S, Fab (Fab, V domains shown, Fab; CH1 and CL of the Fab not specified; also called Fab of Clone S) VH: QVQLVQSGAEVKKPGASVKVSCKASGYTFTSYGINWVRQAPGQGLEWMGWITAYSGDTNYAQKLQGRVTMTTDTSTSTAYMELRSLRSDDTAVYYCARGPGQYADVDVWGQGTMVTVSS VL: DIQLTQSPSSVSASVGDRVTITCRASQGISPWLAWYQQKPGKAPKLLIYAASSLQSGVPSRFSGSGSGTDFTLTISSLQPEDFATYYCQQANSFPITFGGGTKVEIK	10.43
GDF15 antibody agent Clone E, Fab (Fab, V domains shown, Fab; CH1 and CL of the Fab not specified; also called Fab of Clone E) VH: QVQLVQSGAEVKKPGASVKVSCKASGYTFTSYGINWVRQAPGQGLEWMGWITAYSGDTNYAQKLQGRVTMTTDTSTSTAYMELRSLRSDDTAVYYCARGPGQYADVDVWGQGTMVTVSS VL: DIQMTQSPSSVSASVGDRVTITCRASQGISSWLAWYQQKPGKAPKLLIYAASSLQSGVPSRFSGSGSGTDFTLTISSLQPEDFATYYCQQANSFPITFGGGTKVEIK	10.48
GDF15 antibody agent Clone O, Fab (Fab, V domains shown, Fab; CH1 and CL of the Fab not specified; also called Fab of Clone O) VH: QVQLVQSGAEVKKPGATVKVSCKASGYTFDSLGMSWVRQAPGQGLEWMGYISTYSGDTVYAQKLQGRVTMTTDTSTSTAYMELRSLRSDDTAVYYCARESGQQVSALDPWGQGTLVTVSS VL: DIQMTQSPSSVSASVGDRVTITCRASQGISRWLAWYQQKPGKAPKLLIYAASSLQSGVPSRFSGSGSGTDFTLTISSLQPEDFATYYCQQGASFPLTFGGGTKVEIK	10.47

Next up:
Enquiry: Consider the binder GDF15 antibody agent Clone M, Fab (Fab, V domains shown, Fab; CH1 and CL of the Fab not specified; also called Fab of Clone M) VH: QVQLVQSGAEVKKPGASVKVSCKASGYTFDSYGINWVRQAPGQGLEWMGWISAYSGDTAYAQELQGRVTMTTDTSTSTAYMELRSLRSDDTAVYYCVRDTQYGGSPYWGQGTLVTVSS VL: EIVMTQSPATLSVSPGERATLSCRASQSVSSNLAWYQQKPGQAPRLLIYGASTRATGIPARFSGSGSGTEFTLTISSLQSEDFAVYYCQQYNNWPITFGGGTKVEIK and give its measured pKd.
Return: 9.22
